- System: ISC-enriched organoids
- experiment-description: Primary screen, 384-well 2.5-D organoid differentiation (ENR+CD, 6 days): basal lysozyme secretion (LYZ.NS)
- Format: cell-based, murine
- test-context: Dose 0.40 uM; ENR+CD, 6 days; FC vs plate median
Criterion: Dose.FC.LYZ.NS strictly under -0.03 log 2 fold change. Met: met. Not met: not met.

{"columns": ["molecule", "assay-system", "assigned-label"],
 "data": [
  ["CCOC(=O)c1ccc(NC2CCCCC2)c(N)c1", "ISC-enriched organoids", "not met"]
]}

(Q) Does the reported Dose.FC.LYZ.NS of the following molecule sit strictly below -0.03 log 2 fold change? CN[C@@H](C)C(=O)N[C@H](C(=O)N1CCC[C@H]1C(=O)Nc1snnc1-c1ccccc1)C1CCCCC1
(A) not met

(Q) Please do the same for CC(C)C[C@H](NC(=O)[C@@H](NC(=O)c1cccc(-c2ccccc2)n1)[C@@H](C)O)B(O)O as well.
(A) met

(Q) Please do the same for CN(C)C(=O)[C@H](O)[C@H](Cc1ccccc1)NC(=O)c1cc2cc(Cl)ccc2[nH]1 as well.
(A) met

(Q) Please do the same for O=C(NC(NC(=S)Nc1ccc(F)c([N+](=O)[O-])c1)C(Cl)(Cl)Cl)C(c1ccccc1)c1ccccc1 (stereo not drawn) as well.
(A) not met

(Q) Please do the same for CC1=C(C(=O)OC2CCCCC2)C(c2ccc([N+](=O)[O-])cc2)C2=C(CC(C)(C)CC2=O)N1 (stereo not drawn) as well.
(A) not met

(Q) Please do the same for C[C@H](N[C@@H](CCc1ccccc1)C(=O)O)C(=O)N1CCC[C@H]1C(=O)O.O.O [Enalaprilat Dihydrate] as well.
(A) not met

(Q) Please do the same for CC(C)c1cc(-c2n[nH]c(=O)n2-c2ccc3c(ccn3C)c2)c(O)cc1O [Ganetespib (STA-9090)] as well.
(A) met

(Q) Please do the same for CC1C(=O)OC2C(O)C34C5CC(C(C)(C)C)C36C(OC(=O)C6O)OC4(C(=O)O5)C12O (stereo not drawn) [Ginkgolide B] as well.
(A) not met

(Q) Please do the same for COc1ccc(C[C@@H](C)NC[C@H](O)c2ccc(O)c(NC=O)c2)cc1.COc1ccc(C[C@@H](C)NC[C@H](O)c2ccc(O)c(NC=O)c2)cc1.O=C(O)/C=C/C(=O)O [Formoterol Hemifumarate] as well.
(A) not met

(Q) Please do the same for C[C@H]1COC2=C1C(=O)C(=O)c1c2ccc2c1CCCC2(C)C as well.
(A) met

(Q) Please do the same for C=CC(=O)Nc1cccc(Nc2nc(Nc3ccc(Oc4ccnc(C(=O)NC)c4)cc3)ncc2F)c1 as well.
(A) not met

(Q) Please do the same for O=c1[nH]c2ccc(Cl)cc2c(N[C@@H]2CN3CCC2CC3)c1-c1nc2ccccc2[nH]1 as well.
(A) met

(Q) Please do the same for CC(C)Oc1ccc(-c2cnc3c(-c4ccnc5ccccc45)cnn3c2)cc1 as well.
(A) not met

(Q) Please do the same for CC(C)(C)c1nc(-c2cccc(NS(=O)(=O)c3c(F)cccc3F)c2F)c(-c2ccnc(N)n2)s1 as well.
(A) not met
